molecular target: T1, human TMEM106B (human, UniProt Q9NUM4 2-274); test: FACS HEK+huTMEM 0.1 ug/ml;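 note: flow cytometry binding of purified mouse IgG antibodies to HEK293 cells transiently expressing TMEM106B, read as median fluorescence intensity on live cells (propidium iodide negative gating)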
T1 construct: full-length, transiently expressed on HEK293 cells, or natively expressed on HeLa, U251 and A549 cells (the cell is named under assay); also the source of the Pepscan peptides; also called huTMEM106B; huTMEM
I'd be grateful if you could share measured MFI for these entries.
Give bare numbers, in MFI.

Record excerpt, results attached:
• TM-45 (antibody, V domains shown) VH: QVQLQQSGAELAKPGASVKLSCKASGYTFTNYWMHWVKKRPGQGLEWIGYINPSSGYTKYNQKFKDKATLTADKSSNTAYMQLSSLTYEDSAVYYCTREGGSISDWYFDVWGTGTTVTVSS VL: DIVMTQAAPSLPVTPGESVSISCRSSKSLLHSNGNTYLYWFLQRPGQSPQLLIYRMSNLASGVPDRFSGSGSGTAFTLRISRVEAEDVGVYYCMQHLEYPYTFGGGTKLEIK = 21300
• TM-31 (antibody, V domains shown, mouse IgG (hybridoma)) VH: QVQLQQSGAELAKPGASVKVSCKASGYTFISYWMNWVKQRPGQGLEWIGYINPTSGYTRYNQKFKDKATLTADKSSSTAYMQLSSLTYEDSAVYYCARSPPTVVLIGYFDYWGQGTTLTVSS VL: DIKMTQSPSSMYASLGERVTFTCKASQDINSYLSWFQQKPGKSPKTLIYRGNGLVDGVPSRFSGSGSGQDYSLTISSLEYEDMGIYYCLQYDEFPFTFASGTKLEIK = 1390

Now consider the entry below.
// MFI lookup, binder = TM-10 (antibody, V domains shown) VH: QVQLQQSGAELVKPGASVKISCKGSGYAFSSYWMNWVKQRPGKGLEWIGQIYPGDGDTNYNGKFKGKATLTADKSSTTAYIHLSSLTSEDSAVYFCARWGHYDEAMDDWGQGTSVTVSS VL: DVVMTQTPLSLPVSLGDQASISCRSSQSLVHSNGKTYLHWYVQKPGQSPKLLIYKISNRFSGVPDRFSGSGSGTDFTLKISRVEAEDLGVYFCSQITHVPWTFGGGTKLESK , result: 21000
